Below, each of the compounds is paired with its reported fold increase in IFN-β release value.
# System: STING activation (IFNβ release) in iBMDMs
# test_summary: IFNβ release ELISA after STING ligand (or LPS) stimulation, iBMDMs
# Format: cell-based, mouse
# run_parameters: iBMDMs; 3′3′-cGAMP 10 μg/ml, 16 hours; compound 10 μM
// note: answer is a bare numeric in fold

compound=Cc1[nH]c2ccccc2c1CCNC(=O)c1cccs1 readout_value=2.06
compound=COc1ccc(C(=O)Nc2sc3c(c2C(N)=O)CCCC3)cc1OC readout_value=0.45
compound=COc1cc(-n2c(=S)[nH]c3ccccc3c2=O)c(Cl)cc1Cl readout_value=2.10
compound=Cc1[nH]c(/C=C2\C(=O)Nc3ccc(S(=O)(=O)Cc4c(Cl)cccc4Cl)cc32)c(C)c1C(=O)N1CCC[C@@H]1CN1CCCC1 readout_value=0.43
compound=CNc1nc(Nc2cn(C(C)(C)C#N)nc2C)ncc1C(F)(F)F readout_value=1.32
compound="O=C(O)C(Cc1ccccc1[N+](=O)[O-])=NNc1nc(-c2ccc(Cl)c(Cl)c2)cs1 (mixture of isomers)" readout_value=4.14
compound=NC(=O)c1cccc(-c2cc(Nc3ccc(OC(F)(F)F)cc3)ncn2)c1 readout_value=0.56

Now consider the entry below.
Given the compound COc1cc2c(Nc3ccc(Br)cc3F)ncnc2cc1OCC1CCN(C)CC1 [Vandetanib (ZD6474), Vandetanib] , what is its reported fold increase in IFN-β release?
0.25

---

# Tested on: STING activation (IFNβ release) in iBMDMs
# test_summary: IFNβ release ELISA after STING ligand (or LPS) stimulation, iBMDMs
# Type: cell-based, mouse
# run_parameters: iBMDMs; 3′3′-cGAMP 10 μg/ml, 16 hours; compound 10 μM
Where a name gives a salt, the structure may show the parent alone.
Define the label as 1 (yes) when fold increase in IFN-β release is strictly less than 0.9 fold and as 0 (no) in all remaining cases.

Worked set:
molecule=CC(C)c1c(C(=O)Nc2ccccc2)c(-c2ccccc2)c(-c2ccc(F)cc2)n1CC[C@@H](O)C[C@@H](O)CC(=O)[O-].CC(C)c1c(C(=O)Nc2ccccc2)c(-c2ccccc2)c(-c2ccc(F)cc2)n1CC[C@@H](O)C[C@@H](O)CC(=O)[O-].[Ca+2] answer_label="0 (no)"
molecule=Cc1cc(SCc2sc(-c3ccc(C(F)(F)F)c(F)c3)nc2C)ccc1OCC(=O)O answer_label="1 (yes)"
molecule=CC(C)C[C@H](NC(=O)[C@H]1O[C@@H]1C(=O)O)C(=O)NCCCCN=C(N)N answer_label="1 (yes)"

Please determine if CC(C)(C)c1nc(-c2cccc(NS(=O)(=O)c3c(F)cccc3F)c2F)c(-c2ccnc(N)n2)s1 is below 0.9 fold in terms of fold increase in IFN-β release.
1 (yes)

Would you kindly repeat that for Cc1ccc(S(=O)(=O)Cc2nc(-c3ccc(C(=O)NCc4cccnc4)cc3)oc2C)cc1 ?
0 (no)

Would you kindly repeat that for CC1(C)CCC(c2ccc(Cl)cc2)=C(CN2CCN(c3ccc(C(=O)NS(=O)(=O)c4ccc(N[C@H](CCN5CCOCC5)CSc5ccccc5)c(S(=O)(=O)C(F)(F)F)c4)cc3)CC2)C1 ?
0 (no)

Would you kindly repeat that for CC(=O)c1c(C)c2cnc(Nc3ccc(N4CCNCC4)cn3)nc2n(C2CCCC2)c1=O [Palbociclib (PD-0332991) HCl, Palbociclib] ?
0 (no)

Would you kindly repeat that for CCCc1ccc(OCC(=O)N(Cc2nc(-c3cccnc3)no2)C(C)C)cc1 ?
1 (yes)

---

# Tested on: STING activation (IFNβ release) in iBMDMs
# test_summary: IFNβ release ELISA after STING ligand (or LPS) stimulation, iBMDMs
# Type: cell-based, mouse
# run_parameters: iBMDMs; 3′3′-cGAMP 10 μg/ml, 16 hours; compound 10 μM
Where a name gives a salt, the structure may show the parent alone.
parameter: fold increase in IFN-β release (fold)
// note: answer is a bare numeric in fold

Given the molecule CN(C)CCCCC(=O)Nc1ccc(NC(=S)NC(=O)c2ccc(C(C)(C)C)cc2)cc1 [Tenovin-6] , what is its reported fold increase in IFN-β release?
0.53

Would you kindly repeat that for Cc1cn(-c2cc(NC(=O)c3ccc(C)c(Nc4nccc(-c5cccnc5)n4)c3)cc(C(F)(F)F)c2)cn1 [Nilotinib (AMN-107), Nilotinib] ?
0.77

Would you kindly repeat that for O=C(NCCN1CCOCC1)c1ccc(Cl)cc1 [Moclobemide (Ro 111163), Moclobemide] ?
1.88

Would you kindly repeat that for COC1CCN(C(=O)c2cc(Cc3n[nH]c(=O)c4ccccc34)ccc2F)CC1 [AZD2461] ?
2.12

Would you kindly repeat that for COc1cc2nc(N3CCN(C(=O)C4COc5ccccc5O4)CC3)nc(N)c2cc1OC (centres unmarked) [Doxazosin Mesylate] ?
0.69

---

# Test system: STING activation (IFNβ release) in iBMDMs
# test_summary: IFNβ release ELISA after STING ligand (or LPS) stimulation, iBMDMs
# Assay type: cell-based, mouse
# run_parameters: iBMDMs; 3′3′-cGAMP 10 μg/ml, 16 hours; compound 10 μM
parameter: fold increase in IFN-β release (fold)
// note: answer is a bare numeric in fold

Sample answers from the record:
molecule="COc1ccc(-c2nc3ccc(C4=NNC(=O)CC4C)cc3[nH]2)cc1 (centres unmarked)" target_or_system="STING activation (IFNβ release) in iBMDMs" units_of_measure=fold readout_value=1.79
molecule=C#CC[C@H](c1nc2cc(Cl)ccc2c(=O)n1Nc1ccccc1)N(CCCN)C(=O)c1cccc(Cl)c1F target_or_system="STING activation (IFNβ release) in iBMDMs" units_of_measure=fold readout_value=1.87
molecule="C#CCC(Cc1cnc2nc(N)nc(N)c2n1)c1ccc(C(=O)N[C@@H](CCC(=O)O)C(=O)O)cc1 (some centres unmarked) [Pralatrexate]" target_or_system="STING activation (IFNβ release) in iBMDMs" units_of_measure=fold readout_value=4.31
molecule="COc1c(C)c(C(=O)c2ccc(N)c(C(=O)[O-])c2)n2ccccc12.[Na+] [SSR128129E]" target_or_system="STING activation (IFNβ release) in iBMDMs" units_of_measure=fold readout_value=0.98
molecule=Cc1nc(C(=O)NCC(=O)O)c(O)c2ccc(Oc3ccccc3)cc12 target_or_system="STING activation (IFNβ release) in iBMDMs" units_of_measure=fold readout_value=0.73
molecule=Cc1cc(C)nc(NS(=O)(=O)c2ccc(NC(=S)NC(=O)COc3ccc(Br)cc3Cl)cc2)n1 target_or_system="STING activation (IFNβ release) in iBMDMs" units_of_measure=fold readout_value=2.52
molecule="CN(Cc1cnc2nc(N)nc(N)c2n1)c1ccc(C(=O)N[C@@H](CCC(=O)O)C(=O)O)cc1 [Methotrexate]" target_or_system="STING activation (IFNβ release) in iBMDMs" units_of_measure=fold readout_value=0.68

Now consider the entry below.
Given the molecule O=C(c1ccc(F)cc1)N1CCC[C@H](c2nc(-c3ccc(F)cc3)no2)C1 , what is its reported fold increase in IFN-β release?
1.72

---

# System: STING activation (IFNβ release) in iBMDMs
# test_summary: IFNβ release ELISA after STING ligand (or LPS) stimulation, iBMDMs
# Assay type: cell-based, mouse
# run_parameters: iBMDMs; 3′3′-cGAMP 10 μg/ml, 16 hours; compound 10 μM
Structures can show the parent of a compound that is named as a salt.
Define the label as Y when fold increase in IFN-β release is strictly less than 2 fold and as N in all remaining cases.

compound=Nc1nc(OCc2cc(Br)cs2)c2[nH]cnc2n1 answer_label=Y

Please determine if Nc1cccc(-c2cc3c(Oc4cccc(O)c4)ncnc3[nH]2)c1 is below 2 fold in terms of fold increase in IFN-β release.
Y

Would you kindly repeat that for CN(C)CCOc1ccc(/C(=C(/CCCl)c2ccccc2)c2ccccc2)cc1 [Toremifene Citrate] ?
Y

Would you kindly repeat that for CCCCCCCCCCCCCCCCn1cc[n+](Cc2ccccc2)c1C.[I-] ?
Y

Would you kindly repeat that for Cc1ccc(-c2cc(C(F)(F)F)nn2-c2ccc(S(N)(=O)=O)cc2)cc1 ?
Y

Would you kindly repeat that for CC(C)(C)c1cc(NC(=O)Nc2ccc(-c3cn4c(n3)sc3cc(OCCN5CCOCC5)ccc34)cc2)no1 ?
Y

---

# Tested on: STING activation (IFNβ release) in iBMDMs
# test_summary: IFNβ release ELISA after STING ligand (or LPS) stimulation, iBMDMs
# Assay type: cell-based, mouse
# run_parameters: iBMDMs; 3′3′-cGAMP 10 μg/ml, 16 hours; compound 10 μM
Below, each of the molecules is paired with its reported fold increase in IFN-β release value.
// note: answer is a bare numeric in fold

molecule="CCOC(=O)N1CCC(=C2c3ccc(Cl)cc3CCc3cccnc32)CC1 [Loratadine]" readout_value=3.65
molecule="CC[C@H](NC(=O)[C@H](C)NC)C(=O)N1C[C@@H](O)C[C@H]1Cc1c(-c2[nH]c3cc(F)ccc3c2C[C@@H]2C[C@H](O)CN2C(=O)[C@H](CC)NC(=O)[C@H](C)NC)[nH]c2cc(F)ccc12 [Birinapant]" readout_value=1.15
molecule="COc1cc2c(cc1OC)[C@@H]1Cc3ccc(OC)c(OC)c3CN1CC2 [Rotundine]" readout_value=0.54

Given the molecule O=C(Nc1cc(C(F)(F)F)cc(C(F)(F)F)c1)c1cc(Cl)ccc1O [IMD 0354] , what is its reported fold increase in IFN-β release?
0.86

Would you kindly repeat that for C[C@]1(c2nc3c(C(N)=O)cccc3[nH]2)CCCN1 [Veliparib (ABT-888), Veliparib] ?
0.66

Would you kindly repeat that for CC(C)C[C@H](NC(=O)CNC(=O)c1cc(Cl)ccc1Cl)B(O)O [MLN2238] ?
4.76

Would you kindly repeat that for c1cc(-c2cnn3cc(-c4ccc(N5CCNCC5)cc4)cnc23)c2cccnc2c1 [LDN-212854] ?
0.33

Would you kindly repeat that for CNC(=O)c1cc(Oc2ccc(NC(=O)Nc3cc(C(C)(C)C)nn3-c3ccc4ncccc4c3)c(F)c2)ccn1 [DCC-2036 (Rebastinib), Rebastinib] ?
1.71

Would you kindly repeat that for NC(=O)c1ncn([C@@H]2O[C@H](CO)[C@@H](O)[C@H]2O)c1N [Acadesine] ?
1.02

Would you kindly repeat that for Cc1cn([C@H]2C=C[C@@H](CO)O2)c(=O)[nH]c1=O [Stavudine (d4T), Stavudine] ?
8.20

Would you kindly repeat that for Cc1cnc(-c2ccccc2C(C)C)nc1NCc1ccc(-n2ccnn2)cc1 [ML323] ?
0.43

Would you kindly repeat that for COc1cc(Nc2ncc(F)c(Nc3ccc4c(n3)N(COP(=O)(O)O)C(=O)C(C)(C)O4)n2)cc(OC)c1OC [Fostamatinib (R788), Fostamatinib] ?
0.69

Would you kindly repeat that for CCC(CC)CC1(C(=O)Nc2ccccc2SC(=O)C(C)C)CCCCC1 [Dalcetrapib (JTT-705, RO4607381), Dalcetrapib] ?
0.13

Would you kindly repeat that for C[C@@H](O[C@H]1OCCN(Cc2n[nH]c(=O)[nH]2)[C@H]1c1ccc(F)cc1)c1cc(C(F)(F)F)cc(C(F)(F)F)c1 [Aprepitant] ?
0.76

Would you kindly repeat that for Oc1ccc2ccccc2c1SSc1c(O)ccc2ccccc12 [IPA-3] ?
0.35

Would you kindly repeat that for O=C1NC(=O)C(c2ccccc2[N+](=O)[O-])=C1Nc1ccc(O)c(Cl)c1 [SB415286] ?
1.15
